Test system: phosphorylated 4E-BP1 Thr37/46 (p4E-BP1 Thr37/46), mTORC1 activity, PC3 cells
Assay: mTOR target engagement assay, immunofluorescent cell-based, p4E-BP1 Thr37/46 readout (mTORC1 activity)
Details: Homo sapiens, PC-3, Table 7-9 (no column head printed; column order as in the neighbouring tables); PC3 cells; read-out: p4E-BP1 Thr37/46 IC50
pIC50: −log10 of the molar value.
measurement.label: pIC50

// map CC(=O)c1c([C@@H]2C[C@H]3CC[C@@H](C2)N3C(=O)c2nnc[nH]2)nc2c(-c3ccc(C(O)CO)nc3)cnn2c1N (stereo partly shown) to recorded pIC50 (system: phosphorylated 4E-BP1 Thr37/46 (p4E-BP1 Thr37/46), mTORC1 activity, PC3 cells) 5.00 to 6.00

###

Values of pIC50 reported for human mTOR enzyme (Homo sapiens, UniProt P42345) appear below.
FYI, pIC50 means -log10 of a concentration in mol per litre.

compound.structure: Nc1cc([C@@H]2C[C@H]3CC[C@@H](C2)N3)nc2c(-c3cc[nH]c(=O)c3)cnn12
pIC50: 6.31

Can you share its pIC50? I mean this molecule: CC(=O)c1c([C@@H]2C[C@H]3CC[C@@H](C2)N3C(=O)c2nnc[nH]2)nc2c(-c3ccc(-c4nn(C)cc4F)nc3)cnn2c1N 8.64

Can you share its pIC50? I mean this molecule: Nc1c(F)c([C@@H]2C[C@H]3CC[C@@H](C2)N3C(=O)CO)nc2c(-c3ccc(-c4ncc[nH]4)nc3)cnn12 8.70

###

Attribute: pIC50
Tested on: phosphorylated AKT Ser473 (pAKT S473), mTORC2 activity, PC3 cells
Experiment: mTOR target engagement assay, immunofluorescent cell-based, pAKT S473 readout (mTORC2 activity)
Conditions: Homo sapiens, PC-3, Table 7-4; PC3 cells
pIC50: −log10 of the molar value.

compound.structure: CC(=O)c1c([C@@H]2C[C@H]3CC[C@@H](C2)N3C(=O)c2nnc[nH]2)nc2c(-c3ccc([C@@H](C)O)nc3)cnn2c1N
subject.of.test: phosphorylated AKT Ser473 (pAKT S473), mTORC2 activity, PC3 cells
pIC50: 6.00 to 7.00

Then there is this molecule:
Can you share its pIC50? I mean this molecule: CC(=O)c1c([C@@H]2C[C@H]3CC[C@@H](C2)N3C(=O)c2nnc[nH]2)nc2c(-c3ccc([C@H](C)O)nc3)cnn2c1N 7.00 to 9.00

###

Attribute: pIC50
Tested on: phosphorylated AKT Ser473 (pAKT S473), mTORC2 activity, PC3 cells
Experiment: mTOR target engagement assay, immunofluorescent cell-based, pAKT S473 readout (mTORC2 activity)
Conditions: PC3 cells
Protocol: The target engagement of mTOR kinase inhibitors was evaluated using an immunofluorescent cell-based assay. In this assay, inhibition of mTORC1 activity was measured by the reduction in the level of phosphorylated 4E-BP1^[…] (p4E-BP1 Thr37/46), and inhibition of mTORC2 activity was measured by the reduction of phosphorylated AKT^Ser473 (pAKT S473). […]
pIC50: −log10 of the molar value.

compound: CS(=O)(=O)c1c(C2CC3COCC(C2)N3C(=O)c2nc[nH]n2)nc2c(-c3ccc(-c4ccccc4)nc3)cnn2c1N (single isomer, unassigned) [Compound 8.31]
endpoint.result: 6.00 to 7.00

compound: CC(=O)c1c([C@@H]2C[C@H]3CC[C@@H](C2)N3C(=O)c2nnc[nH]2)nc2c(-c3cnc(NC4CC4)nc3)cnn2c1N [Compound 8.49]
endpoint.result: 7.00 to 9.00

Can you share its pIC50? I mean this compound: CS(=O)(=O)c1c(C2CC3COCC(C2)N3C(=O)c2nc[nH]n2)nc2c(-c3ccc(-c4ccccc4)nc3)cnn2c1N (single isomer, unassigned) [Compound 8.30] 7.00 to 9.00

Can you share its pIC50? I mean this compound: CC(=O)c1c([C@@H]2C[C@H]3CC[C@@H](C2)N3C(=O)c2nnc[nH]2)nc2c(-c3cnc4c(c3)CCCC4O)cnn2c1N (stereo partly shown) [Compound 7.58] 7.00 to 9.00

Can you share its pIC50? I mean this compound: CC(=O)c1c([C@@H]2C[C@H]3CC[C@@H](C2)N3C(=O)c2nnc[nH]2)nc2c(-c3ccc(NC4CC4)nc3)cnn2c1N [Compound 8.47] 7.00 to 9.00

Can you share its pIC50? I mean this compound: CS(=O)(=O)c1c([C@@H]2C[C@H]3CC[C@@H](C2)N3C(=N)NO)nc2c(-c3ccc(-c4ccccc4)nc3)cnn2c1N [Compound 8.72] 5.00 to 6.00

Can you share its pIC50? I mean this compound: CC(=O)c1c([C@@H]2C[C@H]3CC[C@@H](C2)N3C(=O)c2nnc[nH]2)nc2c(-c3cnc4c(c3)CCCC4O)cnn2c1N (stereo partly shown) [Compound 7.59] 6.00 to 7.00

###

Tested on: phosphorylated AKT Ser473 (pAKT S473), mTORC2 activity, PC3 cells
Test: mTOR target engagement assay, immunofluorescent cell-based, pAKT S473 readout (mTORC2 activity)
Conditions: Homo sapiens, PC-3, Table 7-8; PC3 cells
pIC50: −log10 of the molar value.
Attribute: pIC50

In the examples that follow, each entry is paired with its recorded pIC50.
compound: CC(=O)c1c([C@@H]2C[C@H]3CC[C@@H](C2)N3C(=O)c2nnc[nH]2)nc2c(-c3ccc(C4(O)COC4)nc3)cnn2c1N
pIC50: 6.00 to 7.00
--
compound: CC(=O)c1c([C@@H]2C[C@H]3CC[C@@H](C2)N3C(=O)c2nnc[nH]2)nc2c(-c3ccc(C4(O)CCC4)nc3)cnn2c1N
pIC50: 7.00 to 9.00
--
compound: CC(O)c1ccc(-c2cnn3c(N)c(S(C)(=O)=O)c([C@@H]4C[C@H]5CC[C@@H](C4)N5C(=O)c4nnc[nH]4)nc23)cc1 (some centres unmarked)
pIC50: 7.00 to 9.00

Can you share its pIC50? I mean this compound: CC(=O)c1c([C@@H]2C[C@H]3CC[C@@H](C2)N3C(=O)c2nnc[nH]2)nc2c(-c3ccc(C4(O)CCCC4)nc3)cnn2c1N 7.00 to 9.00

Can you share its pIC50? I mean this compound: CS(=O)(=O)c1c([C@@H]2C[C@H]3CC[C@@H](C2)N3C(=O)c2nnc[nH]2)nc2c(-c3ccc(C4(O)COC4)nc3)cnn2c1N 5.00 to 6.00

###

Target: human mTOR enzyme (Homo sapiens, UniProt P42345)
Sequence (P42345 1360-2549 limits assumed): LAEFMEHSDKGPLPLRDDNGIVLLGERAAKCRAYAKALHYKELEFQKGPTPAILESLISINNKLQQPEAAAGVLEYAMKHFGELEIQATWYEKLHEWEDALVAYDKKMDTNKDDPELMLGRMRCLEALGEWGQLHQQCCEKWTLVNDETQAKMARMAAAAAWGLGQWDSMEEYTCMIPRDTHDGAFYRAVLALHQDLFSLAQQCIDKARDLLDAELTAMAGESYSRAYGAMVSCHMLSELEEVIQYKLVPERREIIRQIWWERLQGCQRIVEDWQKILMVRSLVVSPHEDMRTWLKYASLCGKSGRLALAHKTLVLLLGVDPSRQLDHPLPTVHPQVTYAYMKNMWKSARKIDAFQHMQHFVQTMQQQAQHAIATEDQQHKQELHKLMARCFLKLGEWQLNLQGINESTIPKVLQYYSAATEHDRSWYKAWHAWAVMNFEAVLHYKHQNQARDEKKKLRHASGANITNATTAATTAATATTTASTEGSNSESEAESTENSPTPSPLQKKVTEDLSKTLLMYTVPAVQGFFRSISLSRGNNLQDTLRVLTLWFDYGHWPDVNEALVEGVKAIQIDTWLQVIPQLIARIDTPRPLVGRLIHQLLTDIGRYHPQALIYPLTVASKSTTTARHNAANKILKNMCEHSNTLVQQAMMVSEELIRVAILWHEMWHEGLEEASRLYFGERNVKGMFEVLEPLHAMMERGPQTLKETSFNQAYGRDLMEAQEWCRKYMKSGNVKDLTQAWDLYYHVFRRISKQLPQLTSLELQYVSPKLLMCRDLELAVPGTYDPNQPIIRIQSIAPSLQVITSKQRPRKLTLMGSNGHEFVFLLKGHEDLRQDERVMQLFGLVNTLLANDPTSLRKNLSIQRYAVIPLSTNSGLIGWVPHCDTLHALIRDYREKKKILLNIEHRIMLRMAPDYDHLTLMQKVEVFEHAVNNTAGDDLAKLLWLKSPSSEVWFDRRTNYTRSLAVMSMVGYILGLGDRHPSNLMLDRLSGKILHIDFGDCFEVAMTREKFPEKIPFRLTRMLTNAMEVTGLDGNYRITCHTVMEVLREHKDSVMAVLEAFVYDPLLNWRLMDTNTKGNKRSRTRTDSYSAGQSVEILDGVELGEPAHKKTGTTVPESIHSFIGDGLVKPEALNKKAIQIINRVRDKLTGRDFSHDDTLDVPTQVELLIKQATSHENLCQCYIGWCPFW
Test: mTOR kinase assay (HTRF mTOR enzyme assay)
Assay type: biochemical
Conditions: 5 μM ATP, 0.2 μM GST-S6K, one hour at 30° C.
Attribute: IC50

compound: CC(=O)c1c(N2C3CCC2CN(C(=O)CO)C3)nc2c(-c3ccc(-c4ccccc4)nc3)cnn2c1N [Compound 49]
IC50: 1 to 10 nM

compound: CC(=O)c1c(N2CC3CCC2CN3C(=O)[C@@H](C)O)nc2c(-c3ccc(-c4ccccc4)nc3)cnn2c1N (stereo partly drawn) [Compound 47]
IC50: 10 to 25 nM

Can you share its IC50? I mean this compound: CC(=O)c1c(N2C3CCC2CN(C(=O)[C@@H](C)O)C3)nc2c(-c3ccc(-c4ccccc4)nc3)cnn2c1N [Compound 50] 10 to 25 nM
